study.target: Prostaglandin G/H synthase 1 (Bos taurus)
Sequence (O62664 whole entry): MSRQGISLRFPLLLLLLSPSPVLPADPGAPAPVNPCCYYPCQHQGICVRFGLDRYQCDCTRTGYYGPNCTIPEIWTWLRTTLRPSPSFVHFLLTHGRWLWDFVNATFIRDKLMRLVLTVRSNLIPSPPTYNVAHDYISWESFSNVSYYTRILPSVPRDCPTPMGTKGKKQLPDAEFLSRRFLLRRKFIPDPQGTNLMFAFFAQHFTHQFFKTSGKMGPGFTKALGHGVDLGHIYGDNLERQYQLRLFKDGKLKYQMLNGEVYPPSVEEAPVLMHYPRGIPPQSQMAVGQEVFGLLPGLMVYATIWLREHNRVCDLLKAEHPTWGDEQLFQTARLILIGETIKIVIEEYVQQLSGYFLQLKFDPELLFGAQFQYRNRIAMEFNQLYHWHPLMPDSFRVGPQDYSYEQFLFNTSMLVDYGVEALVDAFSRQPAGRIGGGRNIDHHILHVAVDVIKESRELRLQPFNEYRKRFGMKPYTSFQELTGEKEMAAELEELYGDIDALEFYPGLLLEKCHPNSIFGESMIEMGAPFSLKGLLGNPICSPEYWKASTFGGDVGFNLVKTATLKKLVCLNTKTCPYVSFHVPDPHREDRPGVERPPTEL
assay.name: Inhibition of bovine seminal microsomal COX1 assessed as PGE2 production
property: IC50 (µM)
Numbers only, in µM.

Recorded IC50 of Oc1cc(O)c2c(c1)O[C@H](c1ccc(O)c(O)c1)[C@@H](O)C2 [CIANIDANOL] , please.
183
